# Assay Target: T1, human vascular endothelial growth factor receptor-2 Fc chimera (KDR-Fc) (human, UniProt P35968 20-764)
# T1 construct: range 1-764; also called human VEGFR-2; hKDR; not shown: human IgG1 Fc
# T1 sequence (P35968 20-764 limits assumed, change not shown, form in doubt): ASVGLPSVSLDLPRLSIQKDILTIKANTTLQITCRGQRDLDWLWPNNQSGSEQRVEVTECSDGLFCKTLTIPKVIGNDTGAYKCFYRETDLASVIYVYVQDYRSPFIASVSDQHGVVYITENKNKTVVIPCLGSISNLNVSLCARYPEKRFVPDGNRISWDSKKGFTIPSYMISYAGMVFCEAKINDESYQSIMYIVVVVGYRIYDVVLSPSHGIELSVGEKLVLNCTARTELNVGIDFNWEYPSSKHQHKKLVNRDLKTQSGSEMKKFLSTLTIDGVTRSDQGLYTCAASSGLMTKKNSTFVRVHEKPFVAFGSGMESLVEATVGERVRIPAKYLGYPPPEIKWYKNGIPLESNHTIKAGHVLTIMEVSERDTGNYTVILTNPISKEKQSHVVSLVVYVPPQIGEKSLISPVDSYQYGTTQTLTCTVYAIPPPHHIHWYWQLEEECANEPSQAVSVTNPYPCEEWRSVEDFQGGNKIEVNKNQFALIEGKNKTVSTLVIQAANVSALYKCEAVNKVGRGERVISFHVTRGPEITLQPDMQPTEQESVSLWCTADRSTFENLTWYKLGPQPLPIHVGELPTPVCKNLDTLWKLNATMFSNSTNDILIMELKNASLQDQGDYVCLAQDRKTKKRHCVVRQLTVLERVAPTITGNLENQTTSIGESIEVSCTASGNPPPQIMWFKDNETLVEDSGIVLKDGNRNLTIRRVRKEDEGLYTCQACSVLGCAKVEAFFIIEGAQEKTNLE
# Assay Protocol: binding to 1 nM KDR-Fc, % of input; radioactive equilibrium binding (assay not given)
Measured Attribute: Binding to 1 nM KDR, % (%)

- Binder: "K4 (designed binder, Del 1-8 10Fn3 clone; Flag tag of the assay form not included) EVVAATPTSLLISWRHPHFPTRYYRITYGETGGNSPVQEFTVPLQPPTATISGLKPGVDYTITGYAVTAGYNDQILMTPISINYRT"
  Unit Text: "%"
  Result Value: 38
- Binder: "E15 (designed binder, Del 1-8 10Fn3 clone; Flag tag of the radioactive-assay form not included) EVVAATPTSLLISWRHPHFPTRYYRITYGETGGNSPVQEFTVPLQPPTATISGLKPGVDYTITGYAVTLEPNGRYLMVPISINYRT"
  Unit Text: "%"
  Result Value: 52
- Binder: "E22 (designed binder, Del 1-8 10Fn3 clone; Flag tag of the radioactive-assay form not included) EVVAATPTSLLISWRHPHFPTRYYRITYGETGGNSPVQEFTVPLQPPTATISGLKPGVDYTITGYAVTLGRNDRELLTPISINYRT"
  Unit Text: "%"
  Result Value: 45
- Binder: "E19 (designed binder, Del 1-8 10Fn3 clone; Tags not included) EVVAATPTSLLISWRHPHFPTRYYRITYGETGGNSPVQEFTVPLQPPTATISGLKPGVDYTITGYAVTVERNGRHLMTPISINYRT"
  Unit Text: "%"
  Result Value: 38
- Binder: "K11 (designed binder, Del 1-8 10Fn3 clone; Flag tag of the assay form not included) EVVAATPTSLLISWRHPHFPTRYYRITYGETGGNSPVQEFTVPLQPPTATISGLKPGVDYTITGYAVTQAPNDRVLYTPISINYRT"
  Unit Text: "%"
  Result Value: 24
- Binder: "E8 (designed binder, Del 1-8 10Fn3 clone; Flag tag of the radioactive-assay form not included) EVVAATPTSLLISWRHPHFPTRYYRITYGETGGNSPVQEFTVPLQPPTATISGLKPGVDYTITGYAVTEEWNGRVLMTPISINYRT"
  Unit Text: "%"
  Result Value: 51
- Binder: "K3 (designed binder, Del 1-8 10Fn3 clone; Flag tag of the assay form not included) EVVAATPTSLLISWRHPHFPTRYYRITYGETGGNSPVQEFTVPLQPPTATISGLKPGVDYTITGYAVTAGWDDHELFIPISINYRT"
  Unit Text: "%"
  Result Value: 45
- Binder: "E3 (designed binder, Del 1-8 10Fn3 clone; Flag tag of the radioactive-assay form not included) EVVAATPTSLLISWRHPHFPTRYYRITYGETGGNSPVQEFTVPLQPPTATISGLKPGVDYTITGYAVTDGRNDRKLMVPISINYRT"
  Unit Text: "%"
  Result Value: 37
- Binder: "E14 (designed binder, Del 1-8 10Fn3 clone; Flag tag of the radioactive-assay form not included) EVVAATPTSLLISWRHPHFPTRYYRITYGETGGNSPVQEFTVPLQPPTATISGLKPGVDYTITGYAVTLERNGQVLFTPISINYRT"
  Unit Text: "%"
  Result Value: 33
- Binder: "K10 (designed binder, Del 1-8 10Fn3 clone; Flag tag of the assay form not included) EVVAATPTSLLISWRHPHFPTRYYRITYGETGGNSPVQEFTVPLQPPTATISGLKPGVDYTITGYAVTTGPNDRLLFVPISINYRT"
  Unit Text: "%"
  Result Value: 33
- Binder: "E20 (designed binder, Del 1-8 10Fn3 clone; Flag tag of the radioactive-assay form not included) EVVAATPTSLLISWRHPHFPTRYYRITYGETGGNSPVQEFTVPLQPPTATISGLKPGVDYTITGYAVTVERNGQVLYTPISINYRT"
  Unit Text: "%"
  Result Value: 43
- Binder: "K8 (designed binder, Del 1-8 10Fn3 clone; Flag tag of the assay form not included) EVVAATPTSLLISWRHPHFPTRYYRITYGETGGNSPVQEFTVPLQPPTATISGLKPGVDYTITGYAVTVTHNGHPLMTPISINYRT"
  Unit Text: "%"
  Result Value: 18
- Binder: "K9 (designed binder, Del 1-8 10Fn3 clone; Flag tag of the assay form not included) EVVAATPTSLLISWRHPHFPTRYYRITYGETGGNSPVQEFTVPLQPPTATISGLKPGVDYTITGYAVTFGLYGKELLIPISINYRT"
  Unit Text: "%"
  Result Value: 35
- Binder: "K5 (designed binder, Del 1-8 10Fn3 clone; Flag tag of the assay form not included) EVVAATPTSLLISWRHPHFPTRYYRITYGETGGNSPVQEFTVPLQPPTATISGLKPGVDYTITGYAVTMGPNDNELLTPISINYRT"
  Unit Text: "%"
  Result Value: 47
- Binder: "E24 (designed binder, Del 1-8 10Fn3 clone; Flag tag of the radioactive-assay form not included) EVVAATPTSLLISWRHPHFPTRYYRITYGETGGNSPVQEFTVPLQPPTATISGLKPGVDYTITGYAVTVERNDRVLFTPISINYRT"
  Unit Text: "%"
  Result Value: 24
- Binder: "E10 (designed binder, Del 1-8 10Fn3 clone; Flag tag not included) EVVAATPTSLLISWRHPHFPTRYYRITYGETGGNSPVQEFTVPLQPPTATISGLKPGVDYTITGYAVTEGRNGRELFIPISINYRT"
  Unit Text: "%"
  Result Value: 53
- Binder: "E13 (designed binder, Del 1-8 10Fn3 clone; Flag tag of the radioactive-assay form not included) EVVAATPTSLLISWRHPHFPTRYYRITYGETGGNSPVQEFTVPLQPPTATISGLKPGVDYTITGYAVTLEQNGRELMTPISINYRT"
  Unit Text: "%"
  Result Value: 38
- Binder: "K12 (designed binder, Del 1-8 10Fn3 clone; Flag tag of the assay form not included) EVVAATPTSLLISWRHPHFPTRYYRITYGETGGNSPVQEFTVPLQPPTATISGLKPGVDYTITGYAVTDVYNDHEIKTPISINYRT"
  Unit Text: "%"
  Result Value: 29
